These data points were gathered from the supplement of paper PMC10307832.

I'd be grateful if you could share measured relative viability for these entries.
- System: NCI-H2023
- test.description: relative viability (nuclei count vs DMSO), 5 days (fraction); higher = more cells survive
- recorded.conditions: first compound 0.04 µM
One number for each entry.

molecule	endpoint.result
C[C@@H]1CN(CC(=O)Nc2ccc3c(c2)Cc2cccc(-c4cc(=O)cc(N5CCOCC5)o4)c2S3)C[C@H](C)O1 + CS(=O)(=O)CCNCc1ccc(-c2ccc3ncnc(Nc4ccc(OCc5cccc(F)c5)c(Cl)c4)c3c2)o1 [Lapatinib] (partner 2 µM)	0.176

Hi team, please reply with relative viability for each item in this list.
1. COc1cc(N2CCC(C(N)=O)CC2)ccc1Nc1nc(N)c(Cl)c(Nc2ccccc2S(=O)(=O)C(C)C)n1 [HG-5-88-01] + C[C@@H](Oc1cc(-c2cnn(C3CCNCC3)c2)cnc1N)c1c(Cl)ccc(F)c1Cl [Crizotinib] (partner 1 µM)
2. C[C@@H]1CN(CC(=O)Nc2ccc3c(c2)Cc2cccc(-c4cc(=O)cc(N5CCOCC5)o4)c2S3)C[C@H](C)O1 + O=C(c1cc(Cc2n[nH]c(=O)c3ccccc23)ccc1F)N1CCN(C(=O)C2CC2)CC1 [Olaparib] (partner 8 µM)
3. C[C@@H]1CN(CC(=O)Nc2ccc3c(c2)Cc2cccc(-c4cc(=O)cc(N5CCOCC5)o4)c2S3)C[C@H](C)O1 + N=C(N)NC(=N)NCCc1ccccc1 [Phenformin] (partner 250 µM)

stdout:
1: 0.729; 2: 0.441; 3: 0.458
